# experimental_details: Cmax in C57BL/6 mouse at 50 mg/kg, sc administered as single dose ever day measured after 2 hrs by HPLC-MS/MS analysis
# Assay type: ADME, organism-based
# Parameters: dose 50 mg/kg, time 2 hrs, route sc
# conditions: in vivo
measurement_type: Cmax (nM)

[[record]]
smiles_text = "Cc1cc(OS(N)(=O)=O)ccc1N(C)C(=O)c1ccc(-c2cc(C)c(O)c(C)c2)o1"
endpoint_result = 2350


----------
Listed compounds paired with reported half-life
# experimental_details: Metabolic stability in mouse liver S9 fraction assessed as half life measured upto 60 mins in presence of NADPH by LC-MS/MS analysis
# Assay type: ADME, subcellular
# conditions: liver S9 fraction
measurement_type: half-life (min)

[[record]]
smiles_text = "Cc1ccccc1N(C)C(=O)c1ccc(-c2cc(C)c(O)c(C)c2)o1"
measurement_type = "half-life"
readout_unit = "min"
comparison_symbol = "="
endpoint_result = 19

[[record]]
smiles_text = "Cc1cc(OS(N)(=O)=O)ccc1N(C)C(=O)c1ccc(-c2cc(C)c(O)c(C)c2)o1"
measurement_type = "half-life"
readout_unit = "min"
comparison_symbol = "="
endpoint_result = 56.1

[[record]]
smiles_text = "Cc1ccc(OS(N)(=O)=O)cc1N(C)C(=O)c1ccc(-c2cc(C)c(O)c(C)c2)o1"
measurement_type = "half-life"
readout_unit = "min"
comparison_symbol = "="
endpoint_result = 28.5

[[record]]
smiles_text = "Cc1cc(OS(N)(=O)=O)c(Cl)cc1N(C)C(=O)c1ccc(-c2cc(C)c(O)c(C)c2)o1"
measurement_type = "half-life"
readout_unit = "min"
comparison_symbol = "="
endpoint_result = 22.5

[[record]]
smiles_text = "NS(=O)(=O)Oc1ccc(-c2ccc(C(=O)c3c(F)ccc(O)c3F)s2)cc1Cl"
measurement_type = "half-life"
readout_unit = "min"
comparison_symbol = "<"
endpoint_result = 5

